System: T lymphocytes
Assay: Inhibition of proliferation of PHA-stimulated T lymphocytes (tritium thymidine incorporation)
Format: cell-based
Conditions: Homo sapiens, T-lymphocyte, 1 μg/ml Phytohemagglutinine, 48 hours, test compounds 0.1-250 μM, read-out: T cells IC50
Protocol: Peripheral blood mononuclear cells (PBMC) from healthy human volunteers were freshly isolated by density gradient centrifugation. T lymphocytes (T cells, Tc) were isolated from PBMC fractions via nylon wool adherence. […] DNA synthesis of proliferating T cells was determined by incorporation of radio labelled tritium thymidine and subsequent radio detection. […] The […] value of proliferation suppression was assessed by graphical evaluation.
Hi there, I'd appreciate the recorded pIC50 for every entry that follows.
Lab note: report pIC50 as minus log10 of the concentration in molar units, number only.

[ask] Quick one: pIC50 of NC(CC(=O)NCCNC(=O)CC(O)C(N)Cc1ccccc1)Cc1ccccc1 (stereo not drawn) [drawing 224] ?
[reply] 3.80

[ask] Name the reported pIC50 value associated with the compound NC(CC(=O)N1CCN(C(=O)C(O)C(N)Cc2ccccc2)CC1)Cc1ccccc1 (stereo not drawn) [drawing 223]
[reply] 3.80

[ask] What does the record list as pIC50 for CC(C)(CNC(=O)CC(CN)Cc1ccccc1)CNC(=O)C(O)C(N)Cc1ccccc1 (stereo not drawn) [drawing 240] ?
[reply] 4.22

[ask] Form field: reported pIC50 of CCC(CC)(CNC(=O)CC(N)Cc1ccccc1)CNC(=O)C(O)C(N)Cc1ccccc1 (stereo not drawn) [drawing 228]
[reply] 4.83

[ask] So what does the record say about pIC50 for NC(CC(=O)NCCCCNC(=O)C(O)C(N)Cc1ccc(C(=O)O)cc1)Cc1cc(F)ccc1F (stereo not drawn) [drawing 251] ?
[reply] 3.95

[ask] Which pIC50 reading was recorded for the compound CCCCCCCCCCCCCCCC(=O)OC(C(=O)NCC(C)(C)CNC(=O)CC(N)Cc1cc(F)ccc1F)C(N)Cc1ccccc1 (stereo not drawn) [drawing 249] ?
[reply] 4.46

[ask] Please look up its pIC50: CCCCCCCC(=O)OC(C(=O)NCC(C)(C)CNC(=O)CC(N)Cc1cc(F)ccc1F)C(N)Cc1ccccc1 (stereo not drawn) [drawing 247]
[reply] 5.13

[ask] Param item = CCC(CC)(CNC(=O)CC(N)Cc1cc(F)ccc1F)CNC(=O)C(O)C(N)Cc1ccccc1 (stereo not drawn) [drawing 265] ; retrieve measured pIC50.
[reply] 5.14

[ask] # query: pIC50 of entry CCCCCCCCCCCC(=O)OC(C(=O)NCC(C)(C)CNC(=O)CC(N)Cc1cc(F)ccc1F)C(N)Cc1ccccc1 (stereo not drawn) [drawing 253]
[reply] 5.70

[ask] Can you look up the measured pIC50 of NC(CNC(=O)c1cccc(NC(=O)C(O)C(N)Cc2ccccc2)c1)Cc1cc(F)ccc1F (stereo not drawn) [drawing 277] for me?
[reply] 4.67

[ask] Look at this compound and give its reported pIC50. CCCCCCCCCCCCCCCC(=O)NC(CC(=O)NCC(C)(C)CNC(=O)C(O)C(Cc1ccccc1)NC(=O)CCCCCCCCCCCCCCC)Cc1cc(F)ccc1F (stereo not drawn) [drawing 268]
[reply] 4.01

[ask] # lookup: pIC50 of CCCCCCCC(=O)NC(CC(=O)NCC(C)(C)CNC(=O)C(O)C(Cc1ccccc1)NC(=O)CCCCCCC)Cc1cc(F)ccc1F (stereo not drawn) [drawing 239]
[reply] 5.09

[ask] Value lookup for pIC50; key = CC(C)(CNC(=O)CC(N)Cc1cc(F)ccc1F)CNC(=O)C(O)C(N)Cc1ccc(-c2cncnc2)cc1 (stereo not drawn) [drawing 283]
[reply] 4.02

[ask] Which pIC50 value is on record for NC(CC(=O)NC(CCCNC(=O)C(O)C(N)Cc1ccccc1)C(=O)O)Cc1cc(F)ccc1F (stereo not drawn) [drawing 241] ?
[reply] 3.95
